Collected pEC50 values appear next to each entry.
# system: T1, cCEACAM5, M. fascicularis CEACAM5 ECD (35-688) (Macaca fascicularis)
# T1 construct: ECD followed by a 24 amino acid extension containing a His-Tag; also called cynomolgus CEACAM5; monkey CEACAM5
# T1 chain: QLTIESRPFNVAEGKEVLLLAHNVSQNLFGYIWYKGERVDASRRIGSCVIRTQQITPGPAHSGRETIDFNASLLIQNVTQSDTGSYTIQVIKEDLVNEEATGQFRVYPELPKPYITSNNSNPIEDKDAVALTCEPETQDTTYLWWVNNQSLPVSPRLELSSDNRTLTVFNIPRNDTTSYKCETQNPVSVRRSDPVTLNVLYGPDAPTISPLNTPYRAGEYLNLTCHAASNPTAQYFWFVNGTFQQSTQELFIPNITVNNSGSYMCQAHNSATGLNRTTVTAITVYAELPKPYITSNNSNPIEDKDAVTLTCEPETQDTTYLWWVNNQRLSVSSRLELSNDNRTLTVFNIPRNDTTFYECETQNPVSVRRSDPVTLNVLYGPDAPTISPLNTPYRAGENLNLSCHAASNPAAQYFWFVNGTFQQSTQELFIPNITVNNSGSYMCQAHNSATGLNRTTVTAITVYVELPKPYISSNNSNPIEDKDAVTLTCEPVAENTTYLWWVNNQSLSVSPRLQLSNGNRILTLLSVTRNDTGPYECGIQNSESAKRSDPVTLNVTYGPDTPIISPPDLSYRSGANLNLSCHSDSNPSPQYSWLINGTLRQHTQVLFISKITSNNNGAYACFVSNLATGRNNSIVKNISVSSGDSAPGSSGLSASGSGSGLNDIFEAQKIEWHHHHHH
# protocol.summary: ELISA, murine hybridoma mAb
pEC50 here: minus log base 10 of the concentration, concentration in moles per litre.

Known pEC50 results, listed for orientation:
antibody MAb1 (antibody, IgG1, V domains shown) VH: EVMLVESGGGLVKPGGSLKLSCAASGFTFSSYAMSWVRQTPEKRLEWVATISSGGSYIYYLDSVKGRFTISRDNAKNTLYLQMSSLRSEDTAMYYCARPAYYGNPAMDYWGQGTSVTVSS VL: DILMTQSQKFMSTSVGDRVSVTCKASQNVGTNVAWYQQKPGQSPKPLIYSASYRYSGVPDRFTGSGSGTDFTLTISNVQSEDLAEYFCQQYNSYPLYTFGGGTKLEIK	8.93
antibody MAb3 (antibody, IgG1, V domains shown, Murine monoclonal from hybridoma, IgG1, kappa) VH: EVKLVESGGGLVKPGGSLTLPCAASGFTFSRYAMSWVRQTPEKRLEWVASISSGGDTYYPDSVKGRFTVSRDNARNILFLQMSSLRSEDTGMYYCARVNYYDSSFLDWWGQGTTLTVSS VL: DIVMTQSQRFMSTLEGDRVSVTCKASQNVGTNVAWYQQKPGQSPKALIYSASYRYSGVPDRFTGSGSGTDFTLTISNVQSEDLAEYFCQQYNNYPLYTFGGGTKLEIK	8.43
antibody MAb5 (antibody, IgG1, V domains shown, Murine monoclonal from hybridoma, IgG1, kappa) VH: ELQLVESGGVLVKPGGSLKLSCAASGFAFSSYDMSWVRQTPEKRLEWVTYINSGGGITYYPDTVKGRFTISRDNARNTLYLQMSSLKSEDTAIYYCTAHYFGSSGPFAYWGQGTLVTVSA VL: DIQMTQSPASLSASVGETVTITCRASENIYSYLAWYQQKQGKSPQLLVYNAKTLTEGVPSRFSGSGSGTQFSLKINSLQPEDFGSYYCQHHYGTPFTFGSGTKLEIK	9.35

In: GET /values?readout=pEC50&item= antibody MAb4 (antibody, IgG1, V domains shown, Murine monoclonal from hybridoma, IgG1, kappa) VH: EVQLVESGGGLVKPGGSLKLSCAASGFTFSSYDMSWVRQTPEKRLEWVAFISSYGGRTYYADTVKGRFTISRDNAKNTLYLQMSSLKSEDTAMFYCAAHYFGTSGPFAYWGQGTLVTVSA VL: DIQMTQSPASLSASVGETVTITCRASENIYSYFAWYQQKQGKSPQLLVYNAKILAEGVPSRFSGSGSGTQFSLKINSLQPEDFGTYYCQHHYGIPFTFGSGTKLELK
Out: 10.30

Reference for the values: patent US20220340682A1
